Kindly state MIC for each of the entries shown.
Test system: Pseudomonas aeruginosa CCM 1961
assay-summary: Antibacterial microdilution broth MIC, P. aeruginosa
Type: cell-based
condition-set: Pseudomonas aeruginosa, CCM1961; 48 h incubation; read-out: MIC PA 48 h
Return type: number; implicit unit µM.

Measured MIC, O=S(=O)(Nc1ncccn1)c1ccc(N=Cc2cc(O)ccc2O)cc1 [Compound 2i] : 500

Measured MIC, COc1ccc(O)c(C=Nc2ccc(S(=O)(=O)Nc3ncccn3)cc2)c1 [Compound 2h] : 500

Measured MIC, O=S(=O)(Nc1ncccn1)c1ccc(N=Cc2cc(I)cc(I)c2O)cc1 [Compound 2p] : 500

Measured MIC, O=[N+]([O-])c1ccc(C=Nc2ccc(S(=O)(=O)Nc3ncccn3)cc2)o1 [Compound 2q] : 250

Measured MIC, O=[N+]([O-])c1ccc(O)c(C=Nc2ccc(S(=O)(=O)Nc3ncccn3)cc2)c1 [Compound 2f] : 500
